test.summary: Peptide stability in simulated intestinal fluid (SIF)
Format: in vitro ADME
test.context: pig, simulated intestinal fluid (SIF) with porcine pancreatin, Table 3-2, porcine pancreatin, pH 6.8, 37° C., 10 μM, 1 h, read-out: SIF (% remaining 1 h)
*1 amine or outer side, *2 acyl side, *3 side chain or, on linkers, in order; H or OH if unused. Where a SMILES comes first, the peptide text is derived from it. Bridges are numbered along the chain shown (N, C = ends). [ ]: non-standard residue; d: D form. 2Nal = N[C@@H](Cc1ccc2ccccc2c1)C(=O)O; AEF = NCCOc1ccc(C[C@H](N)C(=O)O)cc1; X1 = O=C(Cc1ccc(CN[*:1])cc1)[*:2]; αMeL = CC(C)C[C@](C)(N)C(=O)O; CH2COCH2 = O=C(C[*:1])C[*:2]; 3Amb = NCc1cccc(C(=O)O)c1; Dab = NCC[C@H](N)C(=O)O
# key: entry, value: remaining at 1 h, 10 μM
Your answer should be a plain number; it is taken to be in %.

For orientation, consider the following solved cases.
compound	observed.property	endpoint.unit	endpoint.value
CC(C)C[C@]1(C)NC(=O)[C@H](Cc2ccc3ccccc3c2)NC(=O)[C@H](Cc2ccccc2)NC(=O)[C@@H]2CCNC(=O)CC[C@H](NC(=O)[C@H](CO)NC(=O)Cc3ccc(cc3)CNC(=O)CC[C@@H](C(=O)N[C@@H](CCN)C(N)=O)NC1=O)C(=O)N[C@@H](Cc1c[nH]c3ccccc13)C(=O)N[C@@H](CCC(N)=O)C(=O)N2 [Compound 130] ([X1]SEWQ[Dab]F[2Nal][αMeL]E[Dab]-NH2; lactam 3-6, N-10)	remaining at 1 h, 10 μM	%	1
CC(=O)N[C@H]1CCCCNC(=O)CC[C@@H](C(=O)N[C@@H](CCCNC(=N)N)C(N)=O)NC(=O)[C@](C)(CC(C)C)NC(=O)[C@H](Cc2ccc3ccccc3c2)NC(=O)[C@H](Cc2ccc(OCCN)cc2)NC(=O)[C@@H]2CSCC(=O)CSC[C@H](NC(=O)[C@H](CO)NC1=O)C(=O)N[C@@H](Cc1c[nH]c3ccccc13)C(=O)N[C@@H](CCC(N)=O)C(=O)N2 [Compound 47] (Ac-KSCWQC[AEF][2Nal][αMeL]ER-NH2; lactam 1-10; linker 3-6 via CH2COCH2)	remaining at 1 h, 10 μM	%	2

Now consider the entry below.
Assign remaining at 1 h, 10 μM to the following record: CC(C)C[C@]1(C)NC(=O)[C@H](Cc2ccc3ccccc3c2)NC(=O)[C@H](Cc2ccc(OCCN)cc2)NC(=O)[C@@H]2CSCC(=O)CSC[C@H](NC(=O)[C@H](CO)NC(=O)c3cccc(c3)CNC(=O)CC[C@@H](C(=O)N[C@@H](CCCNC(=N)N)C(N)=O)NC1=O)C(=O)N[C@@H](Cc1c[nH]c3ccccc13)C(=O)N[C@@H](CCC(N)=O)C(=O)N2 [Compound 38] ([3Amb]SCWQC[AEF][2Nal][αMeL]ER-NH2; linker 3-6 via CH2COCH2; lactam N-10)
29

---

test.summary: Peptide stability in simulated gastric fluid (SGF)
Type: in vitro ADME
test.context: pig, pH 1.2
*1 amine or outer side, *2 acyl side, *3 side chain or, on linkers, in order; H or OH if unused. Where a SMILES comes first, the peptide text is derived from it. Bridges are numbered along the chain shown (N, C = ends). [ ]: non-standard residue; d: D form. Trp(6-F) = N[C@@H](Cc1c[nH]c2cc(F)ccc12)C(=O)O; AEF = NCCOc1ccc(C[C@H](N)C(=O)O)cc1; X1 = O=C(Cc1ccc(CN[*:1])cc1)[*:2]; 3Pal = N[C@@H](Cc1cccnc1)C(=O)O; αMeL = CC(C)C[C@](C)(N)C(=O)O; CH2COCH2 = O=C(C[*:1])C[*:2]; Dab = NCC[C@H](N)C(=O)O
observed.property: remaining at 4 h, 10 μM (%)
Your answer should be a plain number; it is taken to be in %.

Assign remaining at 4 h, 10 μM to the following record: CC(C)C[C@]1(C)NC(=O)[C@H](Cc2c[nH]c3cc(F)ccc23)NC(=O)[C@H](Cc2ccc(OCCN)cc2)NC(=O)[C@@H]2CSCC(=O)CSC[C@H](NC(=O)[C@H](CO)NC(=O)Cc3ccc(cc3)CNC(=O)CC[C@@H](C(=O)N[C@@H](CCN)C(=O)N[C@@H](Cc3cccnc3)C(N)=O)NC1=O)C(=O)N[C@@H](Cc1c[nH]c3ccccc13)C(=O)N[C@@H](CCC(N)=O)C(=O)N2 [Compound 121] ([X1]SCWQC[AEF][Trp(6-F)][αMeL]E[Dab][3Pal]-NH2; linker 3-6 via CH2COCH2; lactam N-10)
80
